Source of measurements: paper PMC6272685

Examples of compounds with documented HSV-2 SI follow.
test system: HSV-2; test: cytopathic effect inhibition assay against HSV-2 in Vero cells; format: cell-based, herpes simplex virus 2 (G strain); details: ratio of CC50 to EC50
I'd appreciate a reply containing only the number, no unit.

> print(dat)
                                   compound  obs.value
1  O=C1c2cccc3cccc(c23)C(=O)N1N=Cc1ccco1 [Compound 14]        4.5

Lookup: HSV-2 SI / HSV-2 / O=C1c2cccc3cccc(c23)C(=O)N1N=Cc1ccc(O)cc1 [Compound 7]
1.9

How about this compound: O=C1c2cccc3cccc(c23)C(=O)N1N=Cc1ccsc1 [Compound 15]
3.2

How about this compound: O=C1c2cccc3cccc(c23)C(=O)N1N=Cc1cccnc1 [Compound 13]
1.5

How about this compound: COc1ccc(C=NN2C(=O)c3cccc4cccc(c34)C2=O)c(OC)c1 [Compound 10]
0.9

---

Examples of compounds with documented CC50 follow.
test system: Vero cells; experiment: cytotoxicity evaluation using viability assay (crystal violet); format: cell-based, African green monkey; conditions: 48 h
Field note: include the unit after the figure.

> print(dat)
                           smiles.structure       obs.value
1     O=C1c2cccc3cccc(c23)C(=O)N1N=Cc1ccco1  321 ± 23 µg/mL
2           CC=NN1C(=O)c2cccc3cccc(c23)C1=O  375 ± 25 µg/mL
3  O=C1C=CC(=O)N1N1C(=O)c2cccc3cccc(c23)C1=O  220 ± 16 µg/mL
4  COc1cc(C=NN2C(=O)c3cccc4cccc(c34)C2=O)ccc1O   236 ± 8 µg/mL

From here, focus on the item given below.
Lookup: CC50 / Vero cells / O=C1c2cccc3cccc(c23)C(=O)N1NC(=S)NC1CCCCC1
482 ± 14 µg/mL

---

test system: HSV-2; assay: cytopathic effect inhibition assay against HSV-2 in Vero cells; assay type: cell-based, herpes simplex virus 2 (G strain); conditions: ratio of CC50 to EC50
observable: HSV-2 SI
I'd appreciate a reply containing only the number, no unit.

> print(dat)
                                   molecule  obs.value
1  COc1ccccc1C=NN1C(=O)c2cccc3cccc(c23)C1=O [Compound 4]        1.6
2  O=C1c2cccc3cccc(c23)C(=O)N1N1C(=O)c2cccc3cccc(c23)C1=O [Compound 22]        1.3
3  O=C1c2ccccc2C(=O)N1N1C(=O)c2cccc3cccc(c23)C1=O [Compound 21]        1.3
4  C=CCNC(=S)NN1C(=O)c2cccc3cccc(c23)C1=O [Compound 16]        0.3

From here, focus on the item given below.
Look up HSV-2 SI: COc1cc(C=NN2C(=O)c3cccc4cccc(c34)C2=O)ccc1O [Compound 9]
2.2

---

tested on: HSV-2; experiment: cytopathic effect inhibition assay against HSV-2 in Vero cells; type: cell-based, herpes simplex virus 2 (G strain); conditions: Vero cells, 48 h, cytopathic effect inhibition
observable: HSV-2 EC50 (mg/L)
Answer with a number only, understood to be in mg/L.

> print(dat)
                                   molecule  measured.on  obs.value
1  COc1cc(C=NN2C(=O)c3cccc4cccc(c34)C2=O)ccc1O [Compound 9]        HSV-2        108
2  COc1ccccc1C=NN1C(=O)c2cccc3cccc(c23)C1=O [Compound 4]        HSV-2        312

Look up HSV-2 EC50: O=C1c2cccc3cccc(c23)C(=O)N1N=Cc1ccco1 [Compound 14]
71.8

How about this molecule: O=C1c2cccc3cccc(c23)C(=O)N1N=Cc1cccnc1 [Compound 13]
308

How about this molecule: COc1ccc(C=NN2C(=O)c3cccc4cccc(c34)C2=O)c(OC)c1 [Compound 10]
416

How about this molecule: C=CCNC(=S)NN1C(=O)c2cccc3cccc(c23)C1=O [Compound 16]
292

How about this molecule: O=C1c2cccc3cccc(c23)C(=O)N1N=Cc1ccsc1 [Compound 15]
56.7

How about this molecule: O=C1c2cccc3cccc(c23)C(=O)N1N=Cc1ccc(O)cc1 [Compound 7]
220

---

tested on: Vero cells; assay: cytotoxicity evaluation using viability assay (crystal violet); assay type: cell-based, African green monkey; details: 48 h
observable: CC50 (µg/mL)
Answer with a number only, understood to be in µg/mL.

Example entries and their recorded answers appear below.
> print(dat)
                           smiles.structure  observable  obs.value
1  O=C1c2cccc3cccc(c23)C(=O)N1NC(=S)Nc1ccccc1        CC50        518
2  CN(C)c1ccc(C=NN2C(=O)c3cccc4cccc(c34)C2=O)cc1        CC50        289
3  COc1cccc(C=NN2C(=O)c3cccc4cccc(c34)C2=O)c1        CC50        452

Look up CC50: O=C1c2ccccc2C(=O)N1N1C(=O)c2cccc3cccc(c23)C1=O
490

How about this molecule: O=C1c2cccc3cccc(c23)C(=O)N1N=Cc1ccccc1
196

How about this molecule: O=C1c2cccc3cccc(c23)C(=O)N1N1C(=O)c2cccc3cccc(c23)C1=O
560

How about this molecule: C=CCNC(=S)NN1C(=O)c2cccc3cccc(c23)C1=O
96

How about this molecule: O=C1c2cccc3cccc(c23)C(=O)N1N=Cc1ccc(Cl)cc1Cl
316

How about this molecule: CCC=NN1C(=O)c2cccc3cccc(c23)C1=O
317

How about this molecule: O=C1c2cccc3cccc(c23)C(=O)N1N=Cc1ccsc1
180

How about this molecule: O=C1CCC(=O)N1N1C(=O)c2cccc3cccc(c23)C1=O
220

How about this molecule: O=C1c2cccc3cccc(c23)C(=O)N1n1c(=O)c2cc3c(=O)n(N4C(=O)c5cccc6cccc(c56)C4=O)c(=O)c3cc2c1=O
386

How about this molecule: COc1ccccc1C=NN1C(=O)c2cccc3cccc(c23)C1=O
486

How about this molecule: O=C1c2cccc3cccc(c23)C(=O)N1N=Cc1cccc([N+](=O)[O-])c1
316

How about this molecule: O=C1c2cccc3cccc(c23)C(=O)N1N=Cc1cccnc1
458

How about this molecule: O=C1c2cccc3cccc(c23)C(=O)N1N=Cc1ccc(O)cc1
412

How about this molecule: O=C1c2cccc3cccc(c23)C(=O)N1n1c(=O)c2cc3c(=O)oc(=O)c3cc2c1=O
412

How about this molecule: COc1ccc(C=NN2C(=O)c3cccc4cccc(c34)C2=O)c(OC)c1
380

---

Assay: cytotoxicity evaluation using viability assay (crystal violet)
Type: cell-based, African green monkey
Conditions: African green monkey, Vero cells
Description: Vero cells (derived from the kidney of a normal African green monkey) were obtained from the American Type Culture Collection (ATCC, Manassas, VA, USA). The viral strains used were GHSV-UL46 for HSV-1 and the G strain for HSV-2. […] After the end of the incubation period, the viable cell yield was determined by a colorimetric method. In brief, the process of treatment the media with crystal violet solution and measurement of absorbance at 590 nm using a microplate reader was mentioned above. […]
observable: CC50 at 48 h (µg/mL)
Answer with a number only, understood to be in µg/mL.

> print(dat)
                                molecule    observable  obs.value
1  NN1C(=O)c2cccc3cccc(c23)C1=O [Parent]  CC50 at 48 h        320

From here, focus on the item given below.
Look up CC50 at 48 h: Nc1nc2c(ncn2COCCO)c(=O)[nH]1 [Acyclovir, reference compound]
600

---

Tested on: HSV-2
Assay: cytopathic effect inhibition assay against HSV-2 in Vero cells
Format: cell-based, herpes simplex virus 2 (G strain)
Settings: Vero cells, 48 h, cytopathic effect inhibition
Protocol: Vero cells (derived from the kidney of a normal African green monkey) were obtained from the American Type Culture Collection (ATCC, Manassas, VA, USA). The viral strains used were GHSV-UL46 for HSV-1 and the G strain for HSV-2. […] The antiviral screening was performed using a cytopathic effect inhibition assay at the Regional Center for Mycology and Biotechnology (RCMB, Al-Azhar University, Cairo, Egypt). […] Three independent experiments were assessed, each containing four replicates per treatment. […]
Examples of compounds with documented HSV-2 EC50 follow.
Answer with a number only, understood to be in µg/mL.

> print(dat)
                           smiles.structure  obs.value
1  O=C1c2cccc3cccc(c23)C(=O)N1N1C(=O)c2cccc3cccc(c23)C1=O        428

From here, focus on the item given below.
Lookup: HSV-2 EC50 / HSV-2 / O=C1c2ccccc2C(=O)N1N1C(=O)c2cccc3cccc(c23)C1=O
374
